System: NCI-H460
assay_method_text: Antiproliferative activity against human NCI-H460 cells assessed as cell growth at 100 uM after 48 hrs by alamar blue assay
Format: functional
condition_summary: NCI-H460, 48 h, read-out: Activity
Returns: string. Value is Criterion met if measured growth at 100 µM is below 60%, and Criterion not met if it is greater than or equal to it.

Query string: In the record for `COc1ccc(/C=N/c2nc3[nH]nc(C)n3c(=O)c2S(=O)(=O)NN)cc1` , is growth at 100 µM less than 60%?
Result string: Criterion met

Query string: Quick check: growth at 100 µM of COc1ccc(/C=N/c2nc3[nH]nc(C)n3c(=O)c2S(=O)(=O)NN2C(=O)C(CN3CCN(C)CC3)SC2c2ccc(C)cc2)cc1 (stereo unspecified) under 60%?
Result string: Criterion not met

Query string: Strictly below 60% in growth at 100 µM? COc1ccc(/C=N/c2nc3[nH]nc(C)n3c(=O)c2S(=O)(=O)NN2C(=O)CSC2c2ccc(Cl)cc2)cc1 (stereo unspecified)
Result string: Criterion not met

Query string: API: query returns whether the molecule falls strictly under 60% in growth at 100 µM. Query: COc1ccc(/C=N/c2nc3[nH]nc(C)n3c(=O)c2S(=O)(=O)NN2C(=O)C(CN3CCOCC3)SC2c2ccc(OC)cc2)cc1 (stereo unspecified)
Result string: Criterion met

Query string: Consider the molecule COc1ccc(/C=N/c2nc3[nH]nc(C)n3c(=O)c2S(=O)(=O)NN2C(=O)C(CN3CCN(C)CC3)SC2c2ccc(Cl)cc2)cc1 (stereo unspecified) . Is its growth at 100 µM strictly less than 60%?
Result string: Criterion not met

Query string: Lab log: compare recorded growth at 100 µM with 60%; is it strictly lower for `COc1ccc(/C=N/c2nc3[nH]nc(C)n3c(=O)c2S(=O)(=O)N/N=C/c2ccc(C)cc2)cc1` ?
Result string: Criterion not met

---

System: M14
assay_method_text: Growth inhibition of human M14 cells after 48 hrs by sulforhodamine B assay
Type: functional
condition_summary: M14, 48 h
molecules and their reported GI50
The reply should be a number in µM, with the unit left off.

> print(dat)
                                   molecule  reported.property  result.number
1  COc1ccc(/C=N/c2nc3[nH]nc(C)n3c(=O)c2S(=O)(=O)NN2C(=O)C(CN3CCN(C)CC3)SC2c2cccs2)cc1 (centres undefined)               GI50           1.36
2  COc1ccc(/C=N/c2nc3[nH]nc(C)n3c(=O)c2S(=O)(=O)NN2C(=O)C(CN3CCOCC3)SC2c2cccs2)cc1 (centres undefined)               GI50           6.79
3  COc1ccc(/C=N/c2nc3[nH]nc(C)n3c(=O)c2S(=O)(=O)NN2C(=O)C(CN3CCOCC3)SC2c2ccc(OC)cc2)cc1 (centres undefined)               GI50           67.4

Query string: Suppose we examine the molecule COc1ccc(/C=N/c2nc3[nH]nc(C)n3c(=O)c2S(=O)(=O)NN2C(=O)C(CN3CCN(C)CC3)SC2c2ccc(OC)cc2)cc1 (centres undefined) ; what GI50 value has been reported?
Result string: 17

---

System: NCI/ADR-RES
assay_method_text: Growth inhibition of human NCI/ADR-RES cells after 48 hrs by sulforhodamine B assay
Format: functional
reported_property: TGI (µM)
State the answer as a number, implicitly in µM.

> print(dat)
                                   molecule  measured.target  reported.property  value.units  result.number
1  COc1ccc(/C=N/c2nc3[nH]nc(C)n3c(=O)c2S(=O)(=O)NN2C(=O)C(CN3CCN(C)CC3)SC2c2ccc(OC)cc2)cc1 (centres undefined)      NCI/ADR-RES                TGI           µM           40.2
2  COc1ccc(/C=N/c2nc3[nH]nc(C)n3c(=O)c2S(=O)(=O)NN2C(=O)C(CN3CCN(C)CC3)SC2c2cccs2)cc1 (centres undefined)      NCI/ADR-RES                TGI           µM           6.98

Please examine the following record next.
Query string: For NCI/ADR-RES, provide TGI of COc1ccc(/C=N/c2nc3[nH]nc(C)n3c(=O)c2S(=O)(=O)NN2C(=O)C(CN3CCOCC3)SC2c2cccs2)cc1 (centres undefined) please.
Result string: 64.8

---

System: SW-620
assay_method_text: Growth inhibition of human SW620 cells after 48 hrs by sulforhodamine B assay
Type: functional
condition_summary: SW-620, 48 h
Quick reference for GI50 among some compounds
Supply the numeric figure in µM, leaving out any unit text.

> print(dat)
                                   compound  measured.target  reported.property  result.number
1  COc1ccc(/C=N/c2nc3[nH]nc(C)n3c(=O)c2S(=O)(=O)NN2C(=O)C(CN3CCN(C)CC3)SC2c2ccc(OC)cc2)cc1 (centres undefined)           SW-620               GI50           30.4
2  COc1ccc(/C=N/c2nc3[nH]nc(C)n3c(=O)c2S(=O)(=O)NN2C(=O)C(CN3CCOCC3)SC2c2ccc(OC)cc2)cc1 (centres undefined)           SW-620               GI50           47.1
3  COc1ccc(/C=N/c2nc3[nH]nc(C)n3c(=O)c2S(=O)(=O)NN2C(=O)C(CN3CCN(C)CC3)SC2c2cccs2)cc1 (centres undefined)           SW-620               GI50           1.38

Now for a further compound.
Query string: I have this compound here, COc1ccc(/C=N/c2nc3[nH]nc(C)n3c(=O)c2S(=O)(=O)NN2C(=O)C(CN3CCOCC3)SC2c2cccs2)cc1 (centres undefined) , and I need its recorded GI50.
Result string: 6.11

---

Tested on: EKVX
assay_method_text: Growth inhibition of human EKVX cells after 48 hrs by sulforhodamine B assay
Type: functional
reported_property: GI50 (µM)
Provide the reading as a plain figure in µM.

Worked cases, answers included:
> print(dat)
                                   molecule  reported.property  value.units  result.number
1  COc1ccc(/C=N/c2nc3[nH]nc(C)n3c(=O)c2S(=O)(=O)NN2C(=O)C(CN3CCOCC3)SC2c2cccs2)cc1 (centres undefined)               GI50           µM           54.1
2  COc1ccc(/C=N/c2nc3[nH]nc(C)n3c(=O)c2S(=O)(=O)NN2C(=O)C(CN3CCN(C)CC3)SC2c2ccc(OC)cc2)cc1 (centres undefined)               GI50           µM           25.9
3  COc1ccc(/C=N/c2nc3[nH]nc(C)n3c(=O)c2S(=O)(=O)NN2C(=O)C(CN3CCN(C)CC3)SC2c2cccs2)cc1 (centres undefined)               GI50           µM           39.7

Next, consider the following molecule.
Query string: What measured GI50 goes with COc1ccc(/C=N/c2nc3[nH]nc(C)n3c(=O)c2S(=O)(=O)NN2C(=O)C(CN3CCOCC3)SC2c2ccc(OC)cc2)cc1 (centres undefined) ?
Result string: 93.9

---

Quick reference: LC50 of the listed items.
System: UO-31
assay_method_text: Growth inhibition of human UO31 cells after 48 hrs by sulforhodamine B assay
Assay type: functional
condition_summary: UO-31, 48 h

Below are worked cases with known answers.
> print(dat)
                                   molecule    result
1  COc1ccc(/C=N/c2nc3[nH]nc(C)n3c(=O)c2S(=O)(=O)NN2C(=O)C(CN3CCOCC3)SC2c2ccc(OC)cc2)cc1 (centres undefined)  > 100 µM
2  COc1ccc(/C=N/c2nc3[nH]nc(C)n3c(=O)c2S(=O)(=O)NN2C(=O)C(CN3CCOCC3)SC2c2cccs2)cc1 (centres undefined)  > 100 µM
3  COc1ccc(/C=N/c2nc3[nH]nc(C)n3c(=O)c2S(=O)(=O)NN2C(=O)C(CN3CCN(C)CC3)SC2c2cccs2)cc1 (centres undefined)  > 100 µM

Turning now to a further molecule:
Query string: So what does the record say about LC50 for COc1ccc(/C=N/c2nc3[nH]nc(C)n3c(=O)c2S(=O)(=O)NN2C(=O)C(CN3CCN(C)CC3)SC2c2ccc(OC)cc2)cc1 (centres undefined) ?
Result string: 70.5 µM

---

Tested on: DU-145
assay_method_text: Growth inhibition of human DU145 cells after 48 hrs by sulforhodamine B assay
Type: functional
condition_summary: DU-145, 48 h
Listed here: items and their measured GI50.
Entry rule: numbers only, all in µM.

> print(dat)
                                   molecule  reported.property  result.number
1  COc1ccc(/C=N/c2nc3[nH]nc(C)n3c(=O)c2S(=O)(=O)NN2C(=O)C(CN3CCOCC3)SC2c2ccc(OC)cc2)cc1 (centres undefined)               GI50           28.8
2  COc1ccc(/C=N/c2nc3[nH]nc(C)n3c(=O)c2S(=O)(=O)NN2C(=O)C(CN3CCOCC3)SC2c2cccs2)cc1 (centres undefined)               GI50             16
3  COc1ccc(/C=N/c2nc3[nH]nc(C)n3c(=O)c2S(=O)(=O)NN2C(=O)C(CN3CCN(C)CC3)SC2c2ccc(OC)cc2)cc1 (centres undefined)               GI50           11.8

With those in mind, consider the next molecule.
Query string: Quick check: GI50 on DU-145, item COc1ccc(/C=N/c2nc3[nH]nc(C)n3c(=O)c2S(=O)(=O)NN2C(=O)C(CN3CCN(C)CC3)SC2c2cccs2)cc1 (centres undefined) ?
Result string: 5.22
